experiment: probe aNOTCH3 binding on compound microarray – biochemical, small-molecule microarray, 635/667 nm fluorescence, primary screen (AID 1120); details: higher = more signal;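 further: probe is a biotin-tagged antibody raised against NOTCH3 rather than NOTCH3 protein; score merges spot fluorescence near 667 nm with spot signal to noise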
Exercise: for every item that follows, state its recorded composite z-score.

Lookup result for NC(=O)[C@@H]1[C@H]2C(=O)O[C@H](c3ccccc3)[C@H](c3ccccc3)N2[C@H](c2ccc(O)cc2)[C@@]12C(=O)Nc1ccc(C#CC3=CCCCC3)cc12 ; measured composite z-score: 0.81

Value of measured composite z-score for the entry CCCCCCCCCCC(O)C1C=CC2C(=O)NC(=O)C2N1Nc1ccc(Cl)cc1Cl (centres undefined) : -0.0288

Lab book: composite z-score of COc1ccc([Si](C)(C)[C@@H]2[C@@H](CC(=O)N3CCC[C@H]3CO)O[C@]3(C(=O)N(Cc4cccc(I)c4)c4ccccc43)[C@H]2C)cc1 noted as 0.175

Entry O=C1OCCC/C=C\[C@H]2OC34C=CCN(c5ccc6ccccc6c5)C(=O)[C@H]3N(CCCCCO)C(=O)[C@@H]4C12 (some centres undefined) — recorded composite z-score = -0.295

Hey, just so you know, these numbers are from PubChem BioAssay.
